Recorded pKi for molecules tested on 5-hydroxytryptamine receptor 2A (Rattus norvegicus, UniProt P14842), drawn from a number of studies.
Sequence (P14842 whole entry): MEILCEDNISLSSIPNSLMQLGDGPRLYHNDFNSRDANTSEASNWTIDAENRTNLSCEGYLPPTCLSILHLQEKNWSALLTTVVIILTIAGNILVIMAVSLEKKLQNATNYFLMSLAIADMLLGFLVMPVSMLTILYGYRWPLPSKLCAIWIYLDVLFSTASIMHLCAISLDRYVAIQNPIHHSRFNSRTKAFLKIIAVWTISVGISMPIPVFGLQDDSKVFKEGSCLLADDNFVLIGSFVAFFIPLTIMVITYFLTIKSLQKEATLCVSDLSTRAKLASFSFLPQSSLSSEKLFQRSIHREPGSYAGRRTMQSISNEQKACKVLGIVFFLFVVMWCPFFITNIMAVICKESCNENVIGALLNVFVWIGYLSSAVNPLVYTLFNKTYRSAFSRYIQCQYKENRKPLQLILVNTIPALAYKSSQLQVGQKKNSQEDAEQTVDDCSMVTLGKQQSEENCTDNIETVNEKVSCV
FYI, pKi means -log10 of a concentration in mol per litre.

These solved cases illustrate the format of a correct answer.
[[record]]
smilesrepr = "Cc1c(OCCCN2CCC(c3noc4cc(F)ccc34)CC2)nn(-c2ccc(Cl)c(Cl)c2)c(=O)c1C"
targetentity = "5-hydroxytryptamine receptor 2A (Rattus norvegicus, UniProt P14842)"
assayvalue = 7.04

[[record]]
smilesrepr = "CN1CCN(c2nc(-c3ccoc3)cc(-c3ccoc3)n2)CC1"
targetentity = "5-hydroxytryptamine receptor 2A (Rattus norvegicus, UniProt P14842)"
assayvalue = 8.10

[[record]]
smilesrepr = "COc1ccc(OCCCN2CCc3c(c4ccccc4n3C)C2)cc1"
targetentity = "5-hydroxytryptamine receptor 2A (Rattus norvegicus, UniProt P14842)"
assayvalue = 7.00

[[record]]
smilesrepr = "Clc1cccc(N2CCN(CCCc3ccccc3)CC2)c1"
targetentity = "5-hydroxytryptamine receptor 2A (Rattus norvegicus, UniProt P14842)"
assayvalue = 6.30


Param item: `Cc1cc(=O)oc2cc(OCCCCN3CCC(c4nc5ccccc5o4)CC3)ccc12` ; param system: 5-hydroxytryptamine receptor 2A (Rattus norvegicus, UniProt P14842); output pKi: 5.81

Param item: `CCN(CCCN1CCN(c2ccccc2OC)CC1)S(=O)(=O)c1ccc2ncccc2c1` ; param system: 5-hydroxytryptamine receptor 2A (Rattus norvegicus, UniProt P14842); output pKi: 5.88

Param item: `O=c1ccc(OCCCN2CCC(c3noc4cc(F)ccc34)CC2)nn1-c1ccc2ccccc2c1` ; param system: 5-hydroxytryptamine receptor 2A (Rattus norvegicus, UniProt P14842); output pKi: 7.67

---

Recorded pKi for compounds tested on 5-hydroxytryptamine receptor 2A (Rattus norvegicus), drawn from a number of studies.
FYI, pKi means -log10 of a concentration in mol per litre.

These solved cases illustrate the format of a correct answer.
[[record]]
compound = "CN1CCc2cc3c(cc21)CCN3C(=O)Nc1cccnc1"
assayvalue = 5.30

[[record]]
compound = "O=C1CCc2cc(CCCCN3CCC(c4noc5cc(F)ccc45)CC3)cc3c2N1CCC3"
assayvalue = 7.23

[[record]]
compound = "FC(F)(F)c1cccc(OC(CCN2CCN(c3nsc4ccccc34)CC2)c2ccccc2)c1 (stereo unspecified)"
assayvalue = 7.55

[[record]]
compound = "O=c1ccc(OCCCN2CCC(c3noc4cc(F)ccc34)CC2)nn1-c1cccc(Cl)c1Cl"
assayvalue = 9.30

[[record]]
compound = "COc1ccccc1N1CCN(CCN2C(=O)C[C@H](NC(=O)C3CCCCC3)C2=O)CC1"
assayvalue = 5.13


GET /value?item= `Cn1c(=O)c2c(ncn2CCCCN2CCc3ccccc3C2)n(C)c1=O` &field=pKi returns 4.66

GET /value?item= `O=C(c1ccc(F)cc1)C1CCNCC1` &field=pKi returns 6.40

GET /value?item= `Cn1ccc2cc3c(cc21)CCN3C(=O)Nc1cccnc1` &field=pKi returns 6.30

GET /value?item= O=C(NCCN1CCC(c2nc3ccccc3o2)CC1)C1COc2ccccc2O1 (stereo unspecified) &field=pKi returns 7.06

GET /value?item= `N#C/N=C(\NCCCN1CCN(c2cccc3ccccc23)CC1)c1ccccn1` &field=pKi returns 6.65

---

Recorded Ki for compounds tested on UniProtKB P14842, drawn from a number of studies.
Binarize Ki at 30 nM; below is Y, at or above is N.

[[record]]
compound = "O=c1ccc(OCCCN2CCC(c3nc4ccccc4s3)CC2)nn1-c1ccc(Cl)c(Cl)c1"
answerlabel = "N"


Here's an entry: `CN1CCc2ccc(OCCCCN3CCN(c4cccc(C(F)(F)F)c4)CC3)cc2C1=O` . Is its Ki below 30 nM?
N

Here's an entry: COc1ccc2[nH]cc(C3CCN(CCCCN4C(=O)CC(c5c[nH]c6ccccc56)C4=O)CC3)c2c1 (racemic) . Is its Ki below 30 nM?
N

Here's an entry: `O=c1oc2cc(OCCCCN3CCC(c4nc5ccccc5s4)CC3)ccc2c2c1CCC2` . Is its Ki below 30 nM?
N

---

Recorded Ki for molecules tested on 5-hydroxytryptamine receptor 2A (Rattus norvegicus, UniProt P14842), drawn from a number of studies.
Answer in nM, number only, no unit symbol.

These solved cases illustrate the format of a correct answer.
[[record]]
molecule = "O=S(=O)(NCCCCN1CCN(c2ccc(Cl)cc2)CC1)c1ccc2cccnc2c1"
quantity = "Ki"
readingunit = "nM"
assayvalue = 63

[[record]]
molecule = "Clc1ccc(N2CCN(Cc3cnn(-c4ccccc4)c3)CC2)cc1"
quantity = "Ki"
readingunit = "nM"
assayvalue = 920

[[record]]
molecule = "O=C(c1ccc(F)cc1)C1CCN(CCCCc2ccccc2)CC1"
quantity = "Ki"
readingunit = "nM"
assayvalue = 5.3

[[record]]
molecule = "Cn1c(=O)c2c(nc3nc(NCCN4CCN(c5cccc(Cl)c5)CC4)c(Br)cn32)n(C)c1=O"
quantity = "Ki"
readingunit = "nM"
assayvalue = 64

[[record]]
molecule = "COc1ccccc1N1CCN(CCCCN2C(=O)NC3(CCC(c4ccccc4)CC3)C2=O)CC1 (stereo unspecified)"
quantity = "Ki"
readingunit = "nM"
assayvalue = 75


Param item: `Cn1c2c(c3ccccc31)CCN(CCCOc1ccccc1)C2` ; param system: 5-hydroxytryptamine receptor 2A (Rattus norvegicus, UniProt P14842); output Ki: 150

---

Recorded Ki for molecules tested on 5-hydroxytryptamine receptor 2A (Rattus norvegicus, UniProt P14842), drawn from a number of studies.
Answer in nM, number only, no unit symbol.

These solved cases illustrate the format of a correct answer.
[[record]]
molecule = "O=C(NCCCN1CCN(c2cccc(Cl)c2)CC1)[C@@H]1CCC(=O)N1C(=O)C1CCCCC1"
quantity = "Ki"
assayvalue = 800

[[record]]
molecule = "Cc1cc(=O)oc2cc(OCCCN3CCN(c4ncccn4)CC3)ccc12"
quantity = "Ki"
assayvalue = 2340

[[record]]
molecule = "O=C1NC(c2ccccc2)(C2CC2)C(=O)N1CCCN1CCN(c2ccccc2)CC1 (racemic)"
quantity = "Ki"
assayvalue = 100

[[record]]
molecule = "O=C1CCc2cc(C(O)CCN3CCC(c4noc5cc(F)ccc45)CC3)cc3c2N1CCC3 (stereo not given)"
quantity = "Ki"
assayvalue = 19.9

[[record]]
molecule = "O=S(=O)(c1ccc(N2CCC2)cc1)C1(F)CCN(CCc2ccc(F)cc2F)CC1"
quantity = "Ki"
assayvalue = 0.3


Param item: `O=c1c2ccccc2nnn1CCCN1CCN(c2cccc3ccccc23)CC1` ; param system: 5-hydroxytryptamine receptor 2A (Rattus norvegicus, UniProt P14842); output Ki: 127

Param item: O=C(CCC(Oc1ccccc1F)c1ccccc1)C1CCN(c2ccc(F)cc2)CC1 (stereo not given) ; param system: 5-hydroxytryptamine receptor 2A (Rattus norvegicus, UniProt P14842); output Ki: 8

Param item: `CN1CCN(c2nc(-c3ccoc3)cc(-c3ccco3)n2)CC1` ; param system: 5-hydroxytryptamine receptor 2A (Rattus norvegicus, UniProt P14842); output Ki: 13

Param item: `O=c1c2ccccc2c(OCCCN2CCC(c3noc4cc(F)ccc34)CC2)nn1-c1ccc(Cl)c(Cl)c1` ; param system: 5-hydroxytryptamine receptor 2A (Rattus norvegicus, UniProt P14842); output Ki: 83.9

Param item: CC12C(=O)C(C)(C(c3ccccc3)=C1c1ccccc1)C1C(=O)N(CCCCN3CCN(c4ccccn4)CC3)C(=O)C12 (stereo not given) ; param system: 5-hydroxytryptamine receptor 2A (Rattus norvegicus, UniProt P14842); output Ki: 4700

Param item: `CN1CCc2ccc(OCCCN3CCN(c4ccccc4Cl)CC3)cc2C1=O` ; param system: 5-hydroxytryptamine receptor 2A (Rattus norvegicus, UniProt P14842); output Ki: 179

Param item: `Cl.O=S(=O)(c1cnc2ccccc2c1)N1CCC(CCN2CCN(c3ccc(Cl)cc3)CC2)CC1` ; param system: 5-hydroxytryptamine receptor 2A (Rattus norvegicus, UniProt P14842); output Ki: 31

---

pKi: −log10 of the molar value.
Recorded pKi for compounds tested on UniProt P14842, drawn from a number of studies.
Mark N for pKi values under 7, and Y for everything at or above.

[[record]]
compound = "CN1CCc2ccc(OCCCN3CCN(c4ccccc4)CC3)cc2C1=O"
answerlabel = "N"

[[record]]
compound = "CCOc1nc2c(c(=O)n(C)c(=O)n2C)n1CCCCN1CCN(c2ccccc2OC)CC1.Cl"
answerlabel = "N"

[[record]]
compound = "COc1ccc(/C=C2\\C(=O)N(CCCN3CCN(c4cccc(Cl)c4)CC3)c3ccccc32)cc1"
answerlabel = "Y"

[[record]]
compound = "CCCOc1nc2c(c(=O)n(C)c(=O)n2C)n1CCCN1CCc2ccccc2C1"
answerlabel = "N"

[[record]]
compound = "CCCOc1nc2c(c(=O)n(C)c(=O)n2C)n1CCCCN1CCN(c2cccc(Cl)c2)CC1"
answerlabel = "Y"


Field: next compound
Kindly determine if pKi recorded for O=C(CCCCCN1CCN(c2ccccc2-c2ccccc2)CC1)NC1CCCc2ccccc21 (stereo unspecified) is above or exactly 7.
N
